- PROCEDURE TEXT: NCI Yeast Anticancer Drug Screen. Data for the bub3 strain (AID 167)
- TEST CONTEXT: S. cerevisiae bub3 mutant strain, at 50.0 µM (retest, dose inferred, filed as 5.0)
About 79,000 compounds went through this panel and 15% of them were active in at least one assay; those are over-represented in the sample as a whole. Activity calls are given as the source filed them. Rule as the data show it: active = growth inhibition above about 70%; inactive = the rest. Where a SMILES comes first, the peptide text is derived from it. [ ]: non-standard residue; d: D form. The star is where a group is joined. Phe(2-OMe) = COc1ccccc1C[CH](N)C(=O)O; Cbz = O=C(OCc1ccccc1)*; OBn = c1ccc(CO*)cc1
Classes used: true (1) = active, false (0) = inactive

- MOLECULE: "COC(=O)C(Cc1ccccc1OC)NC(=O)C(CC(=O)OCc1ccccc1)NC(=O)OCc1ccccc1 (stereo not given) (Cbz-Asp(OBn)-[Phe(2-OMe)]-OMe; configuration not given here)"
  CLASS LABEL: "true (1)"
- MOLECULE: "O=C1C=CC(=O)c2c(O)c(N3CCC[C@@H]3CO)c(Cl)c(O)c21"
  CLASS LABEL: "false (0)"
- MOLECULE: "CCC(c1ccc(Cl)cc1)C(C#N)c1ccc(Cl)cc1 (stereo not given)"
  CLASS LABEL: "false (0)"
- MOLECULE: "O=[N+]([O-])c1ccc2c(c1)N([O-])C1(CCCCC1)[N+]2=O"
  CLASS LABEL: "true (1)"
- MOLECULE: "Cc1c2ccccc2c(CCl)c2ccc3ccccc3c12"
  CLASS LABEL: "true (1)"
- MOLECULE: "c1cnc2ccc3c4cccnc4ccc3c2c1"
  CLASS LABEL: "false (0)"
- MOLECULE: "Cc1ccccc1C1SCc2nc3ccccc3n21 (stereo not given)"
  CLASS LABEL: "false (0)"
- MOLECULE: "CCC(=O)NC1=CCC(C(C)(C)C)CC1 (stereo not given)"
  CLASS LABEL: "false (0)"
- MOLECULE: "Nc1ncnc2c1ncn2C1OCC(OCc2ccccc2)C(OCc2ccccc2)C1OCc1ccccc1 (stereo not given)"
  CLASS LABEL: "true (1)"
- MOLECULE: "CSc1ccc(/C=C2/C[N+](C)(C)C/C(=C/c3ccc(SC)cc3)C2=O)cc1"
  CLASS LABEL: "false (0)"
